Every entry's value here was drawn from patent US8304418B2.

# System: CDK1-dependent Eg-5 phosphorylation on threonine 927
# ASSAY NAME: In-cell Eg-5 phosphorylation (immunoblot)
# Format: cell-based, human
# MEASUREMENT SETUP: Homo sapiens; MDA-MB-453 cells, 1 h
# Excerpt: This set of assays represents CDKs involved in cell cycle progression (CDK1, 4/6), and the “regulatory CDK” (CDK9) which is involved in transcriptional regulation. […] CDK1-dependent Eg-5 phosphorylation on threonine 927 (Thr927phos). […] The proteins were blotted on PVDF membranes and subsequently analyzed by antibodies against total Eg-5 (Becton Dickinson) and Eg-5 Thr927phos (Bio legend). […]
REPORTED ENDPOINT: IC50

Would you mind telling me what IC50 value was observed for CC(C)c1nn(-c2c(Cl)cncc2Cl)c2nc(Cc3ccc(CN4CCCC4)c(O)c3)[nH]c(=O)c12 [Compound I] ?
~1 µM

###

# Tested on: CDK1-dependent Eg-5 phosphorylation on threonine 927
# ASSAY NAME: In-cell Eg-5 phosphorylation (immunoblot)
# Format: cell-based, human
# MEASUREMENT SETUP: MDA-MB-453 cells, 1 h
REPORTED ENDPOINT: IC50

Query for CDK1-dependent Eg-5 phosphorylation on threonine 927: what IC50 does the record show for COc1ccc(F)c(F)c1C(=O)c1cnc(NC2CCN(S(C)(=O)=O)CC2)nc1N ?
~0.1 µM

###

# SYSTEM TESTED: CDK1 (Homo sapiens, UniProt P06493)
# Sequence (P06493 whole entry): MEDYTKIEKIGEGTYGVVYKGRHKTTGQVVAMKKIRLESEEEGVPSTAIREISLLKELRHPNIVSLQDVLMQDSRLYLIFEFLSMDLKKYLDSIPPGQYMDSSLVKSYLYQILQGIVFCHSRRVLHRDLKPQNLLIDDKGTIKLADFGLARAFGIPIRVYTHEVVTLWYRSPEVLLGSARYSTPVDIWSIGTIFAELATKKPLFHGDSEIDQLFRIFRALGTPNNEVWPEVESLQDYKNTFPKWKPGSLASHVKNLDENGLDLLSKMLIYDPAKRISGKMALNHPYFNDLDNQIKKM
# Sequence (P14635 whole entry partner): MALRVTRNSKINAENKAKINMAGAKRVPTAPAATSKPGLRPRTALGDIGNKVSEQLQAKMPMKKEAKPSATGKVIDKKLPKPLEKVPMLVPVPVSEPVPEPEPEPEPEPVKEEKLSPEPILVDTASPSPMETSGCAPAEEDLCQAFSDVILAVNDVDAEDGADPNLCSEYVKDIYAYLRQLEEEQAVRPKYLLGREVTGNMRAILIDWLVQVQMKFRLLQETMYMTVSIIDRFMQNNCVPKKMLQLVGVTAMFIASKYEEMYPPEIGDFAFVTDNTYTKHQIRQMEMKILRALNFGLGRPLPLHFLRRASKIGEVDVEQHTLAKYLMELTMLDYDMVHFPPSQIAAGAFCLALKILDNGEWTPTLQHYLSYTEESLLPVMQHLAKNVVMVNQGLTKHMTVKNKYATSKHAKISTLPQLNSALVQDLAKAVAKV
REPORTED ENDPOINT: IC50

Query for CDK1 (Homo sapiens, UniProt P06493): what IC50 does the record show for CC(C)c1nn(-c2c(Cl)cncc2Cl)c2nc(Cc3ccc(CN4CCCC4)c(O)c3)[nH]c(=O)c12 ?
10 to 50 nM

###

# SYSTEM TESTED: CDK6 (Homo sapiens, UniProt Q00534)
# Sequence (Q00534 whole entry): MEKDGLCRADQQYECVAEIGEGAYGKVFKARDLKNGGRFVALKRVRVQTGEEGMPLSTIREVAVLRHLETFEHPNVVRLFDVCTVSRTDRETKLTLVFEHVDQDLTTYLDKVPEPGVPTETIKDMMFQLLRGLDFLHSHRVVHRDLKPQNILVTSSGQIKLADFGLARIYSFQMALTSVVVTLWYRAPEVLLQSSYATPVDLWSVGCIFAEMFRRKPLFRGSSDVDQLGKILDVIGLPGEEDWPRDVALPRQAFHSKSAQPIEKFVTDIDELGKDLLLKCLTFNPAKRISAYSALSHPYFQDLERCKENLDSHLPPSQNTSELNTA
# Sequence (P30281 whole entry partner): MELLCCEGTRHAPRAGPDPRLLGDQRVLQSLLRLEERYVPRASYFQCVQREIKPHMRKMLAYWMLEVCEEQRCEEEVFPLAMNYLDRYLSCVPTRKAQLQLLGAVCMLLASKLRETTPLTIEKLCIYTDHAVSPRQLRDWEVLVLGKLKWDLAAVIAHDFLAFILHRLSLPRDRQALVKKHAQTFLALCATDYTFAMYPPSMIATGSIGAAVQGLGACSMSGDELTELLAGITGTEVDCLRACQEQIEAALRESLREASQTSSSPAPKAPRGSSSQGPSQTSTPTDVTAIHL
pIC50: −log10 of the molar value.
Some compounds, each annotated with its measured pIC50.

COMPOUND	REPORTED ENDPOINT	MEASUREMENT
COc1ccc(F)c(F)c1C(=O)c1cnc(NC2CCN(S(C)(=O)=O)CC2)nc1N [Compound R547]	pIC50	~8.00

Query for CDK6 (Homo sapiens, UniProt Q00534): what pIC50 does the record show for CC(C)c1nn(-c2c(Cl)cncc2Cl)c2nc(Cc3ccc(CN4CCCC4)c(O)c3)[nH]c(=O)c12 [Compound I] ?
7.30 to 8.00

###

# Tested on: CDK9-specific phosphorylation of RNA polymerase II (RNAPII) on serine 2
# ASSAY NAME: In-cell RNAPII phosphorylation (immunoblot)
# Format: cell-based, human
# MEASUREMENT SETUP: Homo sapiens, HCT-116; HCT116 cells, 3 h
REPORTED ENDPOINT: IC50

Would you mind telling me what IC50 value was observed for CC(C)c1nn(-c2c(Cl)cncc2Cl)c2nc(Cc3ccc(CN4CCCC4)c(O)c3)[nH]c(=O)c12 ?
~0.1 µM

###

# Tested on: CDK9-specific phosphorylation of RNA polymerase II (RNAPII) on serine 2
# ASSAY NAME: In-cell RNAPII phosphorylation (immunoblot)
# Type: cell-based, human
# MEASUREMENT SETUP: Colo205 cells, 3 h
REPORTED ENDPOINT: IC50

Query for CDK9-specific phosphorylation of RNA polymerase II (RNAPII) on serine 2: what IC50 does the record show for COc1ccc(F)c(F)c1C(=O)c1cnc(NC2CCN(S(C)(=O)=O)CC2)nc1N ?
~0.5 µM
